These entries and their values trace back to patent EP1870419A2.

biological target: Aβ1-40 peptide (natural β-amyloid peptide, β-AP1-40) (In the fibril binding assay the peptide stood as aged fibrils (many copies, number not stated). In the nucleation assay [CUT]); assay: cell-based or functional assay
Sequence (peptide, as listed by the source limits assumed, form in doubt): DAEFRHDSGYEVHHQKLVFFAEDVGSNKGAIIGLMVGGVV
Square brackets hold non-standard residues; d marks the D form.
Some binders, each annotated with its measured Nucleation assay Δlag, 1.25 µM compound.

// known answers, use as guide
{N,N‑diethyl}-[dA][dF][dF][dV][dL]-NH2 (also: TFA salt) [PPI 1006: TFA·N,N-diethyl-(affvl)-NH,]
1 fold of control lag time
{N,N‑dimethyl}-G[dA][dF][dF][dV][dL]-NH2 (also: TFA salt) [PPI 803: TFA·N,N-dimethyl-(Gaffvl)-NH2]
< 1 fold of control lag time

// next entry
Which Nucleation assay Δlag, 1.25 µM compound is reported for this binder? {N‑methyl}-G[dA][dF][dF][dV][dL]-NH2 (also: TFA salt) [PPI 968: TFA·N-methyl-(Gaffvl)-NH2] 2 fold of control lag time
